Overview of reported growth across a group of compounds:
Tested on: LOX IMVI melanoma
Assay: NCI-60 one-dose screen, 48 h (100 = growth as untreated, 0 = no growth, -100 = all killed)
Settings: 10 µM unless noted
This is part of a sample that, as a whole, favours compounds with a hit. Of some 83,000 tested, about 20% had one in any assay.
readout: growth (%)

{"compound": "CCOC(=O)C1=C(C)N=C2Sc3ccccc3N2C1c1ccccc1 (stereo unspecified)", "target_under_test": "LOX IMVI melanoma", "units_label": "%", "readout_number": 84.3}
{"compound": "CC(=O)Oc1ccc(CCN2C(=O)CSC2=S)cc1", "target_under_test": "LOX IMVI melanoma", "units_label": "%", "readout_number": 41.6}
{"compound": "COc1ccc([C@H]2[C@H](O)C(=O)N2c2cc(OC)c(OC)c(OC)c2)cc1O", "target_under_test": "LOX IMVI melanoma", "units_label": "%", "readout_number": 17.1}
{"compound": "CNC(=O)c1cc(Oc2ccc3nc(NC(=O)c4cccc(C(F)(F)F)c4)sc3c2)ccn1", "target_under_test": "LOX IMVI melanoma", "units_label": "%", "readout_number": 99.3}
{"compound": "COc1cc([C@H]2OC[C@H]3[C@@H]2CO[C@@H]3c2ccc(O)c(OC)c2)ccc1O", "target_under_test": "LOX IMVI melanoma", "units_label": "%", "readout_number": 9.99}
{"compound": "COc1ccc(-c2no[n+]([O-])c2Nc2ccccc2Br)cc1", "target_under_test": "LOX IMVI melanoma", "units_label": "%", "readout_number": 95.6}

* * *

System: MALME-3M melanoma
Assay: NCI-60 one-dose screen, 48 h (100 = growth as untreated, 0 = no growth, -100 = all killed)
Details: 10 µM unless noted
This is part of a sample that, as a whole, favours compounds with a hit. Of some 83,000 tested, about 20% had one in any assay.
Label true when growth is strictly below 40%; otherwise label false.

{"compound": "CN(C)CCn1c2ccc(N)cc2c2nc3ccccc3nc21", "discrete_label": "false"}
{"compound": "COc1cnc2c(c1)C(=O)c1c-2n(CCCNCC2CC2)c(=O)c2cc(F)ccc12", "discrete_label": "true"}
{"compound": "CC(C)c1nn(-c2ccccc2)c(N2CCCCC2)c1/C=N/NC(N)=S", "discrete_label": "false"}
{"compound": "C#CCOc1ccc(C(Nc2cc(Cl)ccc2Cl)c2nnnn2C2CCCCC2)cc1 (stereo not given)", "discrete_label": "false"}
{"compound": "COc1cc(/C=N/Nc2ccnc3cc(Cl)ccc23)cc(OC)c1O", "discrete_label": "true"}
{"compound": "CC1CCc2c(sc3nc(SCC(=O)N/N=C/c4ccc(Cl)cc4)n(-c4ccccc4)c(=O)c23)C1 (stereo not given)", "discrete_label": "false"}
{"compound": "Cc1ccc(/C=C/CC(=O)Nc2ccc(C(=O)Nc3ccc(F)cc3N)cc2)cn1", "discrete_label": "false"}
{"compound": "O=C(CSc1nnc(-c2cccs2)n1-c1ccccc1)Nc1ccc(F)cc1", "discrete_label": "false"}
{"compound": "COc1cc(C2=NN(C(C)=O)C(c3ccc(N4CCOCC4)cc3)C2)cc(OC)c1OC (stereo not given)", "discrete_label": "false"}
{"compound": "O=C1c2c(c3c4cccnc4[nH]c3c3ccc4ccccc4c23)C(=O)N1CCN1CCNCC1", "discrete_label": "false"}

* * *

Tested on: KM12 colon
Assay: NCI-60 one-dose screen, 48 h
Settings: 10 µM unless noted
This is part of a sample that, as a whole, favours compounds with a hit. Of some 83,000 tested, about 20% had one in any assay. The source made the active and inactive calls. How the source made its calls: active means growth percent below 10; inactive means the rest.
Classes used: active, inactive

{"compound": "C#Cc1ccc(NC(=O)c2ccc(/C=C/C(=O)c3nccn3C)cc2)c(F)c1", "target_under_test": "KM12 colon", "discrete_label": "inactive"}
{"compound": "C#C[C@]1(O)CC[C@H]2[C@@H]3CC=C4c5sc(Nc6nc(C)cc(OC)n6)nc5CC[C@]4(C)[C@H]3CC[C@@]21C", "target_under_test": "KM12 colon", "discrete_label": "inactive"}
{"compound": "COc1ccccc1/C=C/C=N/NC1=NC2C(S1)N(C)C(=O)N2c1ccccc1 (stereo not drawn)", "target_under_test": "KM12 colon", "discrete_label": "active"}
{"compound": "COc1cc(O)c2c(c1)[C@H]1O[C@@H]1C[C@H](O)[C@H](O)C(=O)/C=C\\C[C@H](C)OC2=O", "target_under_test": "KM12 colon", "discrete_label": "inactive"}
{"compound": "CSc1ccc(/C(=N/N=C(N)N)c2ccccc2)cc1", "target_under_test": "KM12 colon", "discrete_label": "inactive"}
{"compound": "COc1ccc(NC(=O)[C@H](C)NC(=O)OC(C)(C)C)cc1C(=O)Nc1cccc(-c2cc(=O)c3c(OC)c(OC)c(OC)cc3o2)c1", "target_under_test": "KM12 colon", "discrete_label": "active"}
{"compound": "Cc1csc(Nc2cccc(Nc3nc(C)cs3)c2)n1", "target_under_test": "KM12 colon", "discrete_label": "inactive"}
{"compound": "COc1ccc(Cn2cc3c(c2-c2cc(OC)c(OC)c(OC)c2)CCCc2cnoc2-3)cc1", "target_under_test": "KM12 colon", "discrete_label": "inactive"}
{"compound": "CC1=C2C(=C[C@@](C)(COS(N)(=O)=O)[C@@H]2O)C(=O)[C@](C)(O)C12CC2", "target_under_test": "KM12 colon", "discrete_label": "inactive"}
{"compound": "CCCC(=O)NC(c1cccnc1)c1cc(C(C)=O)c2cccnc2c1O (stereo not drawn)", "target_under_test": "KM12 colon", "discrete_label": "inactive"}
{"compound": "CN(c1ccc(Br)cc1)S(=O)(=O)c1ccc(-c2cnc(C3CC3)o2)cc1", "target_under_test": "KM12 colon", "discrete_label": "inactive"}
{"compound": "O=C1Nc2ccc(Cl)cc2/C1=C/c1ccc(OCc2ccc(Br)cc2F)cc1", "target_under_test": "KM12 colon", "discrete_label": "inactive"}
{"compound": "COc1ccc(NC(=O)[C@H](C)N)cc1C(=O)Nc1cccc(-c2cc(=O)c3c(OC)c(OC)c(OC)cc3o2)c1", "target_under_test": "KM12 colon", "discrete_label": "inactive"}
{"compound": "O=C(NNc1nc2cc(F)cc(F)c2n2cccc12)c1ccncn1", "target_under_test": "KM12 colon", "discrete_label": "inactive"}
{"compound": "O=C(CCCCCCN1CC(=O)N2[C@@H](c3cc(F)cc(F)c3)c3[nH]c4ccccc4c3C[C@H]2C1=O)NO", "target_under_test": "KM12 colon", "discrete_label": "inactive"}
{"compound": "Cc1cc(=O)n2nc(-c3c[nH]c4ccccc34)sc2n1", "target_under_test": "KM12 colon", "discrete_label": "inactive"}
{"compound": "N#C/C(=C\\c1ccc(N2CCCCC2)cc1)C(=O)Nc1sc2c(c1C#N)CCC2", "target_under_test": "KM12 colon", "discrete_label": "inactive"}
{"compound": "Oc1ccc(CSc2nnc(-c3ccc(Br)cc3)n2-c2ccccc2)c2cccnc12", "target_under_test": "KM12 colon", "discrete_label": "inactive"}
{"compound": "C#CCOc1ccccc1C(Nc1ccccc1)c1nnnn1C1CCCCC1 (stereo not drawn)", "target_under_test": "KM12 colon", "discrete_label": "inactive"}
{"compound": "CN1CCN(Cc2ccc(NC(=O)c3cncc(C#Cc4cnc5ccc(NC6CCOCC6)nn45)c3)cc2C(F)(F)F)CC1", "target_under_test": "KM12 colon", "discrete_label": "active"}
{"compound": "Cc1cc(Cl)cc(NS(=O)(=O)c2ccc(-c3cnc(C4CC4)o3)cc2)c1", "target_under_test": "KM12 colon", "discrete_label": "inactive"}
{"compound": "O=C1Nc2cc(OC(F)(F)F)ccc2Oc2ccc(-c3ccnc(N4CCNCC4)c3)cc21", "target_under_test": "KM12 colon", "discrete_label": "active"}
{"compound": "COc1ccc(-c2nnc(SCc3ccc(O)c4ncccc34)n2-c2ccccc2)cc1", "target_under_test": "KM12 colon", "discrete_label": "inactive"}
{"compound": "CS(=O)(=O)c1nccc(-c2c(-c3ccc(F)c(OCc4ccc(F)cc4)c3)nc3sccn23)n1", "target_under_test": "KM12 colon", "discrete_label": "inactive"}
{"compound": "COc1ccc(OC)c([C@H]2c3[nH]c4ccccc4c3C[C@H]3C(=O)N(CCCCCCC(=O)NO)CC(=O)N23)c1", "target_under_test": "KM12 colon", "discrete_label": "inactive"}
{"compound": "CCC(=O)Nc1cc(Nc2cc(NC3CC3)n3ncc(C#N)c3n2)ccc1C", "target_under_test": "KM12 colon", "discrete_label": "inactive"}
{"compound": "O=C(Nc1cccc(Cl)c1)Nc1nc2ccc([N+](=O)[O-])cc2s1", "target_under_test": "KM12 colon", "discrete_label": "active"}
{"compound": "O=S(=O)(Nc1ccc2c(c1)OC(F)(F)O2)c1ccc(-c2cnc(C3CC3)o2)cc1", "target_under_test": "KM12 colon", "discrete_label": "inactive"}
{"compound": "O=C(CSc1ccc(-c2nc3ccccc3[nH]2)cn1)N1CCN(c2ccccc2F)CC1", "target_under_test": "KM12 colon", "discrete_label": "inactive"}
{"compound": "CN1CCN(c2nc(-c3cnc4ccccc4n3)cc3ccccc23)CC1", "target_under_test": "KM12 colon", "discrete_label": "inactive"}
{"compound": "O=C(Nc1cc(Cl)cc(Cl)c1)Nc1nc2ccc([N+](=O)[O-])cc2s1", "target_under_test": "KM12 colon", "discrete_label": "active"}
{"compound": "COc1cc(/C=N/n2cnc3oc(-c4ccccc4)cc3c2=N)cc(CN2CCCC2)c1O", "target_under_test": "KM12 colon", "discrete_label": "inactive"}
{"compound": "CS(=O)(=O)c1ccc2c(c1)c1c(n2S(=O)(=O)c2ccc(Cl)cc2)CCCC1", "target_under_test": "KM12 colon", "discrete_label": "inactive"}
{"compound": "CCN1C(=O)N(CC)C2C1NN=C1SC(c3ccccc3)=CC(=O)N12 (stereo not drawn)", "target_under_test": "KM12 colon", "discrete_label": "inactive"}
{"compound": "NNC(=O)c1sc2nc(-c3cnccn3)cc(-c3cccs3)c2c1N", "target_under_test": "KM12 colon", "discrete_label": "inactive"}
{"compound": "CCOC(=O)c1c(NC(=O)c2ccc(C(C)(C)C)cc2)sc2cc(OCCN3CCCCC3)ccc12", "target_under_test": "KM12 colon", "discrete_label": "inactive"}
{"compound": "C#C[C@]1(O)CC[C@H]2[C@@H]3CC=C4c5sc(Nc6cccc(Cl)n6)nc5CC[C@]4(C)[C@H]3CC[C@@]21C", "target_under_test": "KM12 colon", "discrete_label": "active"}
{"compound": "C[C@H]1[C@H](C)CC[C@]2(COC(=O)c3cccnc3)CC[C@]3(C)C(=CC[C@@H]4[C@@]5(C)CCCNC(C)(C)[C@@H]5CC[C@]43C)[C@H]12", "target_under_test": "KM12 colon", "discrete_label": "inactive"}
